Taken from the supplement of paper PMC9170038.

Tested on: MS2 coat protein
assay_comment: apparent KD of MS2 coat protein; designed switch direction (-1 OFF switch, 1 ON switch): -1; higher = weaker reporter binding
setup_conditions: input ligand: none
A collection of sequences and their measured apparent KD of MS2 coat protein
Numeric answer only, unit nM assumed.

Please review the following examples before continuing.
INSERT INTO measurements (primary_sequence, observed_measurement) VALUES
  ('UGAAUGUCAGGAUAUCGUGCAUACAACGAAAGUUCUAUGUGCGAGAAGGGACAUGAGGAUCACCCAUGUCUUCG [Omei Ex4 A15] (Eterna round: R97, puzzle: Exclusion 4)', 18.3),
  ('UUCGGCGCAGGAUAUACAGUUCUGUGUUGAAUCGGCGCGGGACAUGAGGAUCACCCAUGUAGAAGGGUGUUGGG [-26.9, -23.2 kcal, A 22%] (Eterna round: R97, puzzle: Exclusion 2)', 538),
  ('CACCGUUACAUAGGAUAUGUUACAUGAGGAUCACCCAUGUAAUAAAUGAGAAUUUCGAAUGUAAUACAGAAGGAUGGAAUCGGC [Ostracism 71 - Jieux - Exclusion NG 2] (Eterna round: R96, puzzle: Exclusion NG 2)', 17.7),
  ('GGCACACAUGAGGAUCACCCAUGUCAGGAUAUGUGGCGAUCGUCGAUAGACGAUAGCCACAGAAGGGACAGGCC [Mat - Exclusion 1 - Eli Mod - D22] (Eterna round: R97, puzzle: Exclusion 1)', 69.9);

# input Lab request: please report apparent KD of MS2 coat protein under test system MS2 coat protein for GGAUAAAACUGAGGAUAUACGUAUCACUAACGAGUAGAAGGCAGACAUGAGGAUCACCCAUGUGAGUUCUCAAUAAGAAACACG [Prohibition 65 - Jieux - Exclusion NG 1] (Eterna round: R96, puzzle: Exclusion NG 1)
# output 51.2

----------
System: MS2 coat protein
assay_comment: apparent KD of MS2 coat protein; designed switch direction (-1 OFF switch, 1 ON switch): -1; higher = weaker reporter binding
setup_conditions: input ligand: none
metric_name: apparent KD of MS2 coat protein (nM)
Numeric answer only, unit nM assumed.

INSERT INTO measurements (primary_sequence, metric_name, observed_measurement) VALUES
  ('UAUUAACAAGCUAGGUCCCACAUGAGGAUCACCCAUGUGCUCGUCUUAUAAGGUACUGUGACGAAAGUCACGGUACC [Sensor 3, v1 - 79] (Eterna round: R96, puzzle: Sensor v3, turn-off variant 1)', 'apparent KD of MS2 coat protein', 38.4),
  ('GUAAUCUUAGGAUAUUUACGGGUCGACAUGAGGAUCACCCAUGUACCCACGUAGGCCUGAGAAGAAGGAAGAUGAC [EX5 C.24] (Eterna round: R97, puzzle: Exclusion 5)', 'apparent KD of MS2 coat protein', 14.5),
  ('AGAGCCGUUGUAGGAUAUGCCCUCGGGUGAUGCCGGUCGCCACAUGAGGAUCACCCAUGUAGCGGGCAGAAGGGCAAACUCAGU [Eternabot solution 43] (Eterna round: R96, puzzle: Exclusion NG 2)', 'apparent KD of MS2 coat protein', 18.5),
  ('CGUCUGUGAGGAUAUGGUAUCGUUUACAUGAGGAUCACCCAUGUUACAUGGGACUAGAGACUAGAAGGUACGAACG [EX5 #49] (Eterna round: R97, puzzle: Exclusion 5)', 'apparent KD of MS2 coat protein', 320),
  ('UAAUUAAUAAGAUCAAUUAAUUAACAUGAGGAUCACCCAUGUGAGGAUAUCAGCUCGUGUAGAGCUGAGAAGGCACAAUAAUUA [ExNG3/17-C3] (Eterna round: R96, puzzle: Exclusion NG 3)', 'apparent KD of MS2 coat protein', 51.9);

# input So what does the record say about apparent KD of MS2 coat protein for UUUAUAUAUGAAGGAUAUACUUAACAUGAGGAUCACCCAUGUGGUGUUGUGAGUGAGUGAGUUUAGUAGAAGGUCAAUGAUUUU [JMF's solution 70] (Eterna round: R96, puzzle: Exclusion NG 2) ?
# output 360

# input So what does the record say about apparent KD of MS2 coat protein for AGGAAUCUAGGAUAUAUAUGAAACGAUCCAGAUUCAAGGAAACAUGAGGAUCACCCAUGUAGAAGGAGAGAAAA [EX2 A.17] (Eterna round: R97, puzzle: Exclusion 2) ?
# output 21.5

# input So what does the record say about apparent KD of MS2 coat protein for UUGUUCUGAGGAUAUACAUGAGGAUCACCCAUGUGUUUCAGCUAGGAGACUAGCGAAAGUAGAAGGCUGUACUC [salish99_ex3_r4_017] (Eterna round: R97, puzzle: Exclusion 3) ?
# output 24.9

----------
Tested on: K4 kissing-loop RNA reporter;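 note: bound reporter read as fluorescence of individual clusters on recovered sequencing chips by microscopy, with normalized cluster intensities fitted with a binding model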
assay_comment: apparent KD of K4 kissing-loop reporter; higher = weaker reporter binding
setup_conditions: Eterna round: R107; input ligand: theophylline 20 uM
Short version: apparent KD of K4 kissing-loop reporter at least 200 nM is Criterion met, less is Criterion not met.

INSERT INTO results (primary_sequence, label) VALUES
  ('GCCGCAAGGAUAGCAGCAAUAGGCGCUCGCUAGGAUAUCUGGAAACAGAGAAGGAGCUGGAGUGAUGUUUUACCUCCUAAAAUUA', 'Criterion met'),
  ('UGACUGGAUGGAAGGAGCGCUAAACUCCUAGUGAUGUUAGGGACAUGAGGCAAAGCCUUGAAGCAGGUAGGUCGCCAUCUAGUCU [FiskerMod 27 - Jieux - Same State - Arginine B]', 'Criterion not met'),
  ('AGACUACUGAUAGGAUAUAACAUACUAGCUCGUAUACCAAAGGUAUACGAGCUCCUUCUAGUGAUGUUAGAAGGGUCGGUAGUCA [Omei KL FMN B Exc B v4]', 'Criterion not met');

# input Can GUCAAGGGUGCGGCCGCCACUUCUAGUGAUGUUAGUUUGUCUUCGUUCAACCGGCGUCUGCACGCAAGGACCGGGCACCAGCGAC [theeternabot_exclusion_KL_Trp_B_10] be said to have apparent KD of K4 kissing-loop reporter at or above 200 nM?
# output Criterion met

----------
System: MS2 coat protein
assay_comment: apparent KD of MS2 coat protein; designed switch direction (-1 OFF switch, 1 ON switch): 1; higher = weaker reporter binding
setup_conditions: input ligand: FMN 200 uM
metric_name: apparent KD of MS2 coat protein (nM)
Numeric answer only, unit nM assumed.

Please review the following examples before continuing.
INSERT INTO measurements (primary_sequence, metric_name, observed_measurement) VALUES
  ('GGAAUAUUCACAGGAUAUGAGUUGUAAAGUGGAUCAGAAGGGUGGGUGUUUUGCACGGUGUGUUACAUGAGGAUCACCCAUGUU [SameState NG1 #23] (Eterna round: R96, puzzle: Same State NG 1)', 'apparent KD of MS2 coat protein', 82.4),
  ('UUAUCUUUCCGAGGAUAUCCAUAUAAUUUACAUGAGGAUCACCCAUGUUAUUGGGAGUUUUUUUAGGAGAAGGCGGUUGUAGAU [JR_SSNG2_Sub051] (Eterna round: R96, puzzle: Same State NG 2)', 'apparent KD of MS2 coat protein', 85.1);

In the following, a different sequence is considered.
# input So what does the record say about apparent KD of MS2 coat protein for GAGCCAGUCCGAGGAUAUUCACAUGAGGAUCACCCAUGUAGGCUCAGAAAAGAAAAGGAGCCUUGGGAGAAGGCGGACUGGCUC [Xeonanisa<<8] (Eterna round: R96, puzzle: Same State NG 2) ?
# output 6.35

----------
Test system: MS2 coat protein
assay_comment: apparent KD of MS2 coat protein; designed switch direction (-1 OFF switch, 1 ON switch): -1; higher = weaker reporter binding
setup_conditions: Eterna round: R95; input ligand: microRNA oligo, concentration not stated
metric_name: apparent KD of MS2 coat protein (nM)
Numeric answer only, unit nM assumed.

Please review the following examples before continuing.
INSERT INTO measurements (primary_sequence, target_desc, metric_name, readout_unit, observed_measurement) VALUES
  ('UGGCUGCUUAUGGAGUGUGACAUGAGGAUCACCCAUGUGGUAGUAAGGAACAAGCUUUUUACACGUACUUAUAAAGC [JR_SV3TOV1_Sub012] (puzzle: Sensor v3, turn-off variant 1)', 'MS2 coat protein', 'apparent KD of MS2 coat protein', 'nM', 64.3),
  ('CGUCCACAUGAGGAUCACCCAUGUUAGGAUAUAAACGCCGUAGUCCAAGGACGGGCCUUUAGAAGGAGCGCGGG [Onaredgeso] (puzzle: Exclusion 1)', 'MS2 coat protein', 'apparent KD of MS2 coat protein', 'nM', 12.3),
  ('UUCCUCUUUGUGAGGAUAUCGUCCGUUUUUUGUUACGAGAAGGCACAUGAGGAUCACCCAUGUUUUUUGUUUUU [JR_BMOE4_Sub076] (puzzle: Brourd''s mod of Exclusion 4)', 'MS2 coat protein', 'apparent KD of MS2 coat protein', 'nM', 21.4),
  ('UAAAUGUGAGGAUAUCAGGUGUGCUAGCGUACUGGUACAUCUGAGAAGGCACAUGAGGAUCACCCAUGUUCCUU [Mat - Exclusion 4 - Mod of JL - D49] (puzzle: Exclusion 4)', 'MS2 coat protein', 'apparent KD of MS2 coat protein', 'nM', 16.7);

In the following, a different sequence is considered.
# input So what does the record say about apparent KD of MS2 coat protein for GACGCUAAAGGAUAUACAUGAGGAUCACCCAUGUUGAGGAAGGUUAGAUGAGGAGUAAGUAGAAGGUUAGGCGA [JR_Exclu3_Sub092] (puzzle: Exclusion 3) ?
# output 33.6
